system: Plasmodium berghei; experiment: Luciferase/luciferin-expressing antifolate-resistant parasites were used to infect a culture of HepG2 cells that were pre-incubated with compounds. Infected hepatocytes emit light due to the luciferase reaction. Assay results are presented as the percent inhibition of light emission compared to control. […]; assay type: functional; details: sporozoite, PBLUC_HILL_SLOPE 0.742, PBLUC_R_SQUARED 0.564, read-out: LUCIFERASE INFECTION ASSAY - IC50
reported property: IC50 (µM)

chemical_string=O=C(Nc1ccncc1)c1cc(Br)c(Br)s1 tested_on="Plasmodium berghei" reported_property=IC50 reading_unit=µM result=4.29

---

test system: Plasmodium berghei; assay: Luciferase/luciferin-expressing antifolate-resistant parasites were used to infect a culture of HepG2 cells that were pre-incubated with compounds. Infected hepatocytes emit light due to the luciferase reaction. Assay results are presented as the percent inhibition of light emission compared to control. […]; format: functional; conditions: sporozoite, HEPG2TOX_HILL_SLOPE 1.56, HEPG2TOX_R_SQUARED 0.289, PBLUC_HILL_SLOPE 3.28, PBLUC_R_SQUARED 0.342, read-out: LUCIFERASE INFECTION ASSAY - IC50
reported property: IC50 (µM)

chemical_string=CCN(c1ccc(NC(=S)Nc2cccc3ccccc23)cc1)C(C)C tested_on="Plasmodium berghei" reported_property=IC50 result=5.97

---

test system: Plasmodium berghei; assay: Luciferase/luciferin-expressing antifolate-resistant parasites were used to infect a culture of HepG2 cells that were pre-incubated with compounds. Infected hepatocytes emit light due to the luciferase reaction. Assay results are presented as the percent inhibition of light emission compared to control. […]; type: functional; conditions: sporozoite, HEPG2TOX_HILL_SLOPE 7.93, HEPG2TOX_R_SQUARED 0.604, PBLUC_HILL_SLOPE 0.372, PBLUC_R_SQUARED 0.913, read-out: LUCIFERASE INFECTION ASSAY - IC50
pIC50: −log10 of the molar value.
reported property: pIC50

chemical_string=CC(C)(C)CC(=O)Nc1ccc(-c2nc3ccccc3[nH]2)cc1 tested_on="Plasmodium berghei" result=7.79

---

tested on: Plasmodium berghei; assay: Luciferase/luciferin-expressing antifolate-resistant parasites were used to infect a culture of HepG2 cells that were pre-incubated with compounds. Infected hepatocytes emit light due to the luciferase reaction. Assay results are presented as the percent inhibition of light emission compared to control. […]; type: functional; details: sporozoite, read-out: LUCIFERASE INFECTION ASSAY - IC90
Lab note: cut-off is 6 µM. Strictly less in IC90 is True. Exactly 6 µM or more is False.

compound=O=C(Nc1cccc(Cl)c1)Nc1ccccc1N1CCCC1 class_name=False
compound=Cc1cc(N2CCN(CCO)CC2)n2ncc(-c3ccc(F)cc3)c2n1 class_name=False
compound=Oc1ccc(Br)cc1/C=C/c1ccc2cccc(O)c2n1 class_name=False
compound=Cc1cc([N+](=O)[O-])cc(S(=O)(=O)N(C)Cc2ccc(C(=O)NC3CC3)cc2)c1C class_name=False
compound="CC(C)(C)c1ccc(C(=N)SC(C(=O)C(F)(F)F)c2ccccc2)cc1 (stereo unspecified)" class_name=True
compound=Cc1cc(Cl)ccc1S(=O)(=O)N(Cc1ccncc1)C1CC1 class_name=False
compound="O=C(CSc1nnnn1-c1ccccc1)N1N=C2/C(=C/c3ccc(F)cc3)CCCC2C1c1ccc(F)cc1 (stereo unspecified)" class_name=False
compound="CC1=C(C#N)C(/C=N/N(C)c2ncc(C(F)(F)F)cc2Cl)CC(=O)N1 (stereo unspecified)" class_name=True
compound=C#CCOc1ccccc1/C=C(\C#N)c1nc(N)nc(Nc2ccccc2)n1 class_name=False
compound=CCOC(=O)c1c(NC(=O)CNCc2ccccn2)sc(CC)c1C class_name=False
compound=CCc1cc(OCCCCCCN2CCC(C)CC2)ccc1Cl class_name=False
compound=O=c1[nH][nH]c(-c2ccccc2)c1C=NCc1cccc(C(F)(F)F)c1 class_name=False
compound=CC(C)(C)C(=O)/C=c1\s/c(=C\c2ccsc2)c(=O)n1CC(=O)N1CCc2ccccc21 class_name=False
compound=COc1ccccc1N1CCN(c2ncnc3sc(C)c(-c4ccc(F)cc4)c23)CC1 class_name=False
compound=O=C(Nc1nc(-c2ccc[nH]2)cs1)c1cccc(Br)c1 class_name=False
compound=CSc1nc(=NC(=O)NS(=O)(=O)Oc2ccc(Cl)cc2Cl)n2nc(C3CC3)cc2[nH]1 class_name=False
compound=COc1ccccc1Oc1ccc(S(=O)(=O)N(c2cccnc2)S(=O)(=O)c2ccc(Oc3ccccc3OC)cc2)cc1 class_name=False
compound=O=C(Nc1ccc(N2CCCCCC2)cc1)c1ccc[nH]1 class_name=True
compound=O=C1C(Cl)=C(OC(CO)CO)C(=O)c2ccccc21 class_name=True
compound=COc1ccc(-c2cnc3cnc(-c4cccc(C(=O)N(C)C)c4)cn23)cc1 class_name=True
compound=Cc1cc(C(=O)Cn2nnc3ccccc3c2=O)c(C)n1-c1ccccc1F class_name=True
compound=CCCCOc1ccc(/C=C/C(=O)NNC(=O)Cc2nc3ccccc3n2C)cc1OCC class_name=False
compound=COc1cc(-c2cncc(Nc3cccc(C(F)(F)F)c3)n2)cc(OC)c1OC class_name=False
compound=CCOc1ccccc1NC(=O)CSc1nnc2cc(C)c3ccccc3n12 class_name=False
compound=CCOc1cc(/C=C2\CN(C)C/C(=C\c3ccc(O)c(OCC)c3)C2=O)ccc1O class_name=False
compound=CCOc1ccccc1N/C=C1/C(=O)N(Cc2ccc3c(c2)OCO3)C(=O)c2ccccc21 class_name=False
compound=CN(C1CCCCC1)S(=O)(=O)c1cccc(C(=O)Nc2ccc(S(=O)(=O)NCc3ccco3)cc2)c1 class_name=True
compound=Cc1ccc(C)c(Nc2sc(-c3cc(=O)oc4c(C)c(C)ccc34)c(N)c2-c2nc3ccccc3s2)c1 class_name=False
compound=COc1ccc(-[n+]2c(C)cn3c2CCc2ccccc2-3)cc1 class_name=True
compound="Cc1cc(C2=NNC(=CN3CCc4sccc4C3c3cccs3)O2)c(C)o1 (stereo unspecified)" class_name=False
compound=O=C(Cn1c(CN2CCCCC2)nc2ccccc2c1=O)Nc1ccccc1Oc1ccccc1 class_name=False
compound=CNC(=O)c1ccc(CN(C2CC2)S(=O)(=O)c2cc(C)ccc2C)cc1 class_name=True
compound=CN1CCN(c2ccc(Cl)cc2NC(=O)Nc2cc(Cl)ccc2N2CCN(C)CC2)CC1 class_name=True
compound="Cc1ccc(C2(c3ccccc3)NC(=O)N(CC(=O)c3ccc(Br)s3)C2=O)cc1C (stereo unspecified)" class_name=True
compound=Cn1ccc2cc(-c3cnc4cnc(-c5ccccc5)cn34)ccc21 class_name=True
compound=O=c1cc(-c2ccccc2)[nH]c2cc(-c3ccccc3)nn12 class_name=False
compound=CC(C)(C)NC(=S)Nc1ccccc1N1CCCCC1 class_name=False
compound="Cc1ccc(Cn2nc(C)c3cc(C(=O)OCC(=O)c4cc(C)n(CC5CCCO5)c4C)sc32)cc1 (stereo unspecified)" class_name=False
compound=CC1(C)CC(=O)C(C(c2ccc(OCc3ccccc3)cc2)C2C(=O)CC(C)(C)CC2=O)C(=O)C1 class_name=False
compound=Cc1cc(C(=O)CSc2nnc(Cn3cnc4ccccc43)n2-c2ccccc2Cl)c(C)n1C class_name=False
compound=Cn1c2c(cc(-c3ccccc3)c1=O)CN(Cc1cnn(-c3ccc(F)cc3)c1)CC2 class_name=False
